Parameter: PBM binding z-score. Scope: all listed entries.
System: RARb:RXRa (NR concentration 270 nM, RXRa partner concentration 90 nM)
procedure-summary: PBM binding z-score (relative to random genomic background probes); higher = stronger binding; sequences stand for … in GC…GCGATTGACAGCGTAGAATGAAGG
readout-name: PBM binding z-score

seq-string: TGTCAAAGTTCAAAGGTAACGCAAGTATCCACAC
readout-name: PBM binding z-score
assay-value: 5.19

seq-string: CAAACTGGGTCAAGGTCAAAGTCGGTTTGTGCCA
readout-name: PBM binding z-score
assay-value: 4.95

seq-string: TCGATTAGGTTAGGGGCATTCAGAATGGCGTCGA
readout-name: PBM binding z-score
assay-value: 1.57

seq-string: TCTTGTTGATCAATAGAGGTTAAGAAAGTGCGCT
readout-name: PBM binding z-score
assay-value: 1.05

seq-string: TAGCCTAGGTGATGCGGGCCAGTATAGTGTCGGC
readout-name: PBM binding z-score
assay-value: -0.225

seq-string: TCTTGTAGATCAAAGGTTAAGAAAGCCGAAGCCT
readout-name: PBM binding z-score
assay-value: 1.85

seq-string: CCAGACAGGTGATAAGGTAACTCAGCCTCGATTA
readout-name: PBM binding z-score
assay-value: 0.359

seq-string: CCGAATGGGGCAAGGTTACCATAACGCACAGCCA
readout-name: PBM binding z-score
assay-value: 1.75

seq-string: CGAACGAGGGCATGAGTTGATATCAAATGCCGAT
readout-name: PBM binding z-score
assay-value: 2.01

seq-string: CCTATTAGTTGACCATAAGGGCAAGCGAAGCTCG
readout-name: PBM binding z-score
assay-value: 1.65

seq-string: TGAATGTGGTTAAAGATCAGGGAACGTGGCGTCG
readout-name: PBM binding z-score
assay-value: -0.112

seq-string: TCAGACAGGTGAAGGTAATTCAGGTACGCAGTCG
readout-name: PBM binding z-score
assay-value: 1.08

seq-string: AGAATGAGGTTATTGAGATCAGGGAATTGCGGTC
readout-name: PBM binding z-score
assay-value: 1.63

seq-string: ATCTCTAGGTATGACTCAGTTCAGTGAAGAACGC
readout-name: PBM binding z-score
assay-value: 0.243

seq-string: CCGACTGGCGCATAAGGTTACCATAAGCCAGCCC
readout-name: PBM binding z-score
assay-value: 0.721

seq-string: TGAATGAGGTTATAAGATCAGAGAACGTTGCAAA
readout-name: PBM binding z-score
assay-value: 0.975

seq-string: TCTTGTAGATCAATAGAGGTTAAGAGAGTGCGCT
readout-name: PBM binding z-score
assay-value: 0.738

seq-string: TCGAGTATGTTAGGGGCATTCAGAATGGCGTCGA
readout-name: PBM binding z-score
assay-value: 0.606

seq-string: CATCCAGGGTCAGCTAGGCCAGAGTAGGGACGGC
readout-name: PBM binding z-score
assay-value: 4.03

seq-string: TCATGTAGATCAAGCAGGTTAAGAAAGCCTGAGT
readout-name: PBM binding z-score
assay-value: -0.0113

seq-string: ATCTCTAGGTAACGATAGTTCAGTGAATGCAAAT
readout-name: PBM binding z-score
assay-value: 0.902

seq-string: TTACCAAGGTGAAAGGTCCTTGATGCACGCCTTG
readout-name: PBM binding z-score
assay-value: 1.93

seq-string: GATACAGGGCCAGCTAGAGGCCAGAGTATGGAAA
readout-name: PBM binding z-score
assay-value: 0.56

seq-string: CCCACTGGGCCATCAGGTCATTGATATCAACGTT
readout-name: PBM binding z-score
assay-value: 2.04

seq-string: AATCAAAGTTCACTAGGTAACGTAAGATTCAGCT
readout-name: PBM binding z-score
assay-value: 4.72

seq-string: CCGCCTGGGGCAGAAAGGTTACCATACCATCCGG
readout-name: PBM binding z-score
assay-value: 1.83

seq-string: CTCGAAAGGTCGTGCTCAGGTGAGCATACCAAAC
readout-name: PBM binding z-score
assay-value: 3.92

seq-string: CCTTACGGGTCACTGACAGGTTATAGCTTTTGGA
readout-name: PBM binding z-score
assay-value: 3.74

seq-string: AGAACGAGGGCACACTGAGTTGATAGCAGAGTAG
readout-name: PBM binding z-score
assay-value: 2.16

seq-string: ATATGTATGTTAGCTGGGGTCATTCAGACTAGGC
readout-name: PBM binding z-score
assay-value: 2.6

seq-string: CCTCGGAGGACACAAGGTCAGAGCTGTCCGCTTT
readout-name: PBM binding z-score
assay-value: 3.46

seq-string: TCTTGCAGATCAACAGGAGGTTAAGAAAGATCGA
readout-name: PBM binding z-score
assay-value: 0.489

seq-string: TGTCAAAGTTCAAAGGTAACGTCAGTATCCACAC
readout-name: PBM binding z-score
assay-value: 5.36

seq-string: TAGCCTAGGTCATGTGGGCCAGTATAGTGTCGGC
readout-name: PBM binding z-score
assay-value: 3.81

seq-string: TCATATAGGTAAAAGTTGAAAGTCGGTGTGGTAA
readout-name: PBM binding z-score
assay-value: 1.04

seq-string: TCGAGTAGGTTACCAATGGGGCATACAGCTTTCT
readout-name: PBM binding z-score
assay-value: 0.89

seq-string: GCTAGTTGGTCAGGAAAAGGTCACACACCGGTCG
readout-name: PBM binding z-score
assay-value: 4.17

seq-string: CGAACTGGGTCAAGGACAGTGAATCTCCGCACGC
readout-name: PBM binding z-score
assay-value: 3.39

seq-string: ACTGTTAGTTGAGACGAGGGCAACCGATAGGTTG
readout-name: PBM binding z-score
assay-value: 1.21

seq-string: TCCTATAGGTAAAAGGTGAAAGTCGGTGTGGTAA
readout-name: PBM binding z-score
assay-value: 1.85

seq-string: TAGCCTAGGTCAGATCGGCCCAGTATACGCTATA
readout-name: PBM binding z-score
assay-value: 2.95

seq-string: CCTACTGGCCCATTCAGAGGTCATTGATCATATG
readout-name: PBM binding z-score
assay-value: 2.81

seq-string: CCTAGCAGGCCAATCTGGGCCACTCAAGGCTTGA
readout-name: PBM binding z-score
assay-value: 0.0812

seq-string: TCATATCGGTAAACAGGTGAAAGTCCGTAAGTTA
readout-name: PBM binding z-score
assay-value: 0.764

seq-string: CATATAGGGTCAGCTAGGCCAGAGTAGGGACGGC
readout-name: PBM binding z-score
assay-value: 3.96

seq-string: AGAACGAGGGCACGCTGAGTTGATCGCAGAGTAG
readout-name: PBM binding z-score
assay-value: 2.57

seq-string: CTAACTAGGTCAAGAGGTCAAAGTCCGCTTCCCG
readout-name: PBM binding z-score
assay-value: 5.5

seq-string: TCTTGTAGATCAAGCAGGTTCAGAAAGCCTGAGT
readout-name: PBM binding z-score
assay-value: -0.164

seq-string: ACTAGCAGGCCACGGGTCACTCAAGATTAGTCCG
readout-name: PBM binding z-score
assay-value: 2.17

seq-string: CGTCCAAGGTCGAGGTCAGTGAAAGAGACTCGAA
readout-name: PBM binding z-score
assay-value: 4.39

seq-string: CCGACTGGGGCAAGGTTACCATTACGCACAGCCA
readout-name: PBM binding z-score
assay-value: 1.56

FYI, the data here is from the supplement of paper PMC6555819.
